Conditions: pH 2.7
Marks after values point to notes of the source that are not given here.
Consider the following molecules; for each one, report its log p.

CCC(=O)Nc1cc(-c2cn(C(C)C)nc2-c2ccc(Cl)s2)ccn1; 2.78^[b]
Cn1cc(-c2ccnc(NC(=O)c3cccs3)c2)c(-c2ccc(Cl)s2)n1; 3.04^[b]
CC(C)CCn1cc(-c2ccncn2)c(-c2ccc(Cl)s2)n1; 3.8^[b]
CC(C)=CCn1cc(-c2ccncc2)c(-c2ccc(Br)s2)n1; 2.35^[b]
C=CC(C)n1cc(-c2ccncc2)c(-c2cc3ccsc3s2)n1 (stereo not drawn); 1.94^[b]
C=CCn1cc(-c2ccncc2)c(-c2ccc(Br)s2)n1; 1.82^[b]

Go through the list and state log p for each entry.
1. N#Cc1[nH]nc(-c2ccc(Cl)s2)c1-c1ccncc1
2. C=CC(C)n1cc(-c2ccncc2)c(-c2ccc(Br)s2)n1 (stereo not drawn)
3. Fc1ccccc1Cn1cc(-c2ccncc2)c(-c2sccc2Cl)n1

1: 1.53^[b]; 2: 2.03^[b]; 3: 1.74^[b]

###

Tested on: Fusarium graminearum
Format: cell-based
Conditions: 50 μM; 7 days at 28° C.
Consider the following molecules; for each one, report its % Inhibition of DON/AcDON at 50 μM.
Answers are plain numbers, in %.

Go through the list and state % Inhibition of DON/AcDON at 50 μM for each entry.
1. CCC(C)Nc1nccc(-c2cn(C(C)CC)nc2-c2ccc(Cl)s2)n1 (stereo not drawn)
2. CCC(C)n1nc(-c2ccc(Cl)s2)c(-c2ccncc2)c1C1CC1 (stereo not drawn)
3. CCC(C)n1cc(-c2ccnc(NC(=O)C3CCC3)c2)c(-c2ccc(Cl)s2)n1 (stereo not drawn)
4. Fc1ccc(-c2nn(CCCl)cc2-c2ccncc2)s1
5. CC(C)CC(=O)Nc1cc(-c2cn(C)nc2-c2ccc(Cl)s2)ccn1
6. CC(C)Cn1nc(-c2ccc(Cl)s2)c(-c2ccncc2)c1C1CC1

1: 90; 2: 91; 3: 99; 4: 99; 5: 98; 6: 84

Go through the list and state % Inhibition of DON/AcDON at 50 μM for each entry.
1. CCn1cc(-c2ccncc2)c(-c2cc3ccsc3s2)n1
2. CCn1cc(-c2ccncc2)c(-c2ccc(Br)s2)n1
3. CCn1cc(-c2ccnc(NC(=O)CC(C)C)c2)c(-c2ccc(Cl)s2)n1

98
99
99

Go through the list and state % Inhibition of DON/AcDON at 50 μM for each entry.
1. CCn1cc(-c2ccnc(NC(=O)C(C)C)c2)c(-c2ccc(Cl)s2)n1
2. CCC(CC)n1cc(-c2ccncc2)c(-c2cc3ccsc3s2)n1
3. CCOC(=O)Nc1cc(-c2cn(C)nc2-c2ccc(Cl)s2)ccn1
4. CC(=O)Nc1cc(-c2cn(/C=C/F)nc2-c2ccc(Cl)s2)ccn1
5. CCC(=O)Nc1cc(-c2cn(CC)nc2-c2ccc(Cl)s2)ccn1
6. CCC(C)n1cc(-c2ccnc(NC3COC3)n2)c(-c2ccc(Cl)s2)n1 (stereo not drawn)

1. 99
2. 98
3. 94
4. 100
5. 99
6. 99

Go through the list and state % Inhibition of DON/AcDON at 50 μM for each entry.
1. CCOCCn1cc(-c2ccncc2)c(-c2cc3ccsc3s2)n1
2. CCOCCn1cc(-c2ccncc2)c(-c2ccc(Br)s2)n1
3. CC(C)n1cc(-c2ccncc2)c(-c2ccc(Br)s2)n1

[99, 99, 99]

Go through the list and state % Inhibition of DON/AcDON at 50 μM for each entry.
1. ClCCn1cc(-c2ccncc2)c(-c2ccc(Br)s2)n1
2. CC(=O)Nc1nccc(-c2cn(CC(C)C)nc2-c2ccc(Cl)s2)n1
3. CC(C)Cn1ncc(-c2ccncc2)c1-c1ccc(Br)s1
4. CC(C)Cn1cc(-c2ccnc(NC(C)C)n2)c(-c2ccc(Cl)s2)n1
5. N#CCn1cc(-c2ccncc2)c(-c2ccc(Br)s2)n1
6. Clc1ccc(Cn2cc(-c3ccncc3)c(-c3ccc(Br)s3)n2)s1
7. FC(F)(F)Cn1cc(-c2ccncc2)c(-c2ccc(Br)s2)n1

[99, 83, 95, 99, 99, 99, 99]

Go through the list and state % Inhibition of DON/AcDON at 50 μM for each entry.
1. CC(C)Cn1cc(-c2ccncc2)c(-c2ccc(Cl)s2)n1
2. CC1(Cn2cc(-c3ccncc3)c(-c3ccc(F)s3)n2)CC1(Cl)Cl (stereo not drawn)
3. CC(C)n1cc(-c2ccnc(NC(=O)C3CCC3)c2)c(-c2ccc(Cl)s2)n1

100
97
99

Go through the list and state % Inhibition of DON/AcDON at 50 μM for each entry.
1. Fc1ccc(-c2nn(Cc3ccc(Cl)s3)cc2-c2ccncc2)s1
2. CC(C)n1cc(-c2ccnc(N)c2)c(-c2ccc(Cl)s2)n1

1. 96
2. 100

###

Consider the following compounds; for each one, report its log p.
Conditions: pH 2.3
Marks after values point to notes of the source that are not given here.

Here are 3 compounds together with their reported answers.
CC(=O)Nc1cc(-c2cn(CC(C)C)nc2-c2ccc(Cl)s2)cc[n+]1[O-] [Example 80]; 2.86^[a]
CC(C)n1cc(-c2ccnc(Cl)n2)c(-c2ccc(Cl)s2)n1 [Example 192]; 4.31^[a]
CC(C)n1cc(-c2ccnc(N)n2)c(-c2ccc(Cl)s2)n1 [Example 185]; 2.01^[a]

Go through the list and state log p for each entry.
1. Clc1cc(-c2c[nH]nc2-c2ccc(Cl)s2)ccn1 [Example 40]
2. CC(C)Cn1ncc(-c2ccnc(Cl)c2)c1-c1ccc(Cl)s1 [Example 72]
3. CC(C)Cn1cc(-c2ccnc(N(Cc3ccccc3)C(=O)C(C)C)n2)c(-c2ccc(Cl)s2)n1 [Example 94]

1: 2.75^[a]; 2: 4.65^[a]; 3: 5.88^[a]

###

Tested on: Pyrenophora teres
Test: In vivo test on Pyrenophora teres (barley net blotch)
Details: dose of 500 ppm; barley plants; grading 12 days after contamination
Consider the following molecules; for each one, report its protection.
One number for each entry, in %.

Here are 5 molecules together with their reported answers.
CC(C)n1cc(-c2ccnc(NC(=O)[C@H](C)O)c2)c(-c2ccc(Cl)s2)n1; 95
CC(C)n1cc(-c2ccnc(NC(=O)CC3CC3)c2)c(-c2ccc(Cl)s2)n1; 100
CCC(CC)n1cc(-c2ccncc2)c(-c2ccc(Cl)s2)n1; 95
CCC(C)n1cc(-c2ccncc2)c(-c2ccc(Cl)s2)n1 (stereo not shown); 100
CCC(C)n1cc(-c2ccnc(NC(C)COC)n2)c(-c2ccc(Cl)s2)n1 (stereo not shown); 70

Go through the list and state protection for each entry.
1. CCn1cc(-c2ccnc(NC(=O)C(C)C)c2)c(-c2ccc(Cl)s2)n1
2. CCOC(=O)Nc1cc(-c2cn(CC)nc2-c2ccc(Cl)s2)ccn1

95
70

###

Settings: pH 2.7
Quick rule: logP (pH2.7) of at least 3 means Criterion met, below that means Criterion not met.

FC(F)(F)c1ccc(-c2c(-c3ccncc3)cnn2C2CCCCO2)s1 (stereo not shown); Criterion not met

Test whether the molecule `CC(C)Cn1cc(-c2ccnc(N)c2)c(-c2ccc(Cl)s2)n1` records logP (pH2.7) of 3 or higher. Criterion not met

// query: `CC(C)Nc1nccc(-c2cn(C3CCCC3)nc2-c2ccc(Cl)s2)n1` Criterion met

// query: `CC#Cc1c(-c2ccncc2)c(-c2ccc(Cl)s2)nn1C(C)C` Criterion not met

// query: `CC(C)n1cc(-c2ccncc2)c(-c2ccc(C(F)(F)F)s2)n1` Criterion not met

###

System: Alternaria solani
Assay: Alternaria test (tomato) / protective
Type: in vivo
Settings: 500 ppm active compound, protective spray, evaluated 7 days after inoculation
assay_readout: efficacy (%)
Answers are plain numbers, in %.

CC(C)Cn1nc(-c2ccc(Cl)s2)c(-c2ccncc2)c1Br [Example 395]; 78
Fc1cccc(Cn2cc(-c3ccncc3)c(-c3ccc(Br)s3)n2)c1F [Example 353]; 78
CCC(C)n1cc(-c2ccnc(NC(=O)[C@H](C)O)c2)c(-c2ccc(Cl)s2)n1 (some centres unmarked) [Example 204]; 80
N#CCCn1cc(-c2ccncc2)c(-c2ccc(Br)s2)n1 [Example 350]; 80
CC(C)(C)Cn1cc(-c2ccncc2)c(-c2cc3ccsc3s2)n1 [Example 334]; 78
CCC(=O)Nc1nccc(-c2cn(C(C)CC)nc2-c2ccc(Cl)s2)n1 (centres unmarked) [Example 190]; 80

Go through the list and state efficacy for each entry.
1. CCOC(=O)Nc1cc(-c2cn(C(C)CC)nc2-c2ccc(Cl)s2)ccn1 (centres unmarked) [Example 236]
2. Cn1cc(-c2ccnc(NC(=O)C3CC3)c2)c(-c2ccc(Cl)s2)n1 [Example 279]

1. 80
2. 80

###

System: Fusarium graminearum
Assay type: cell-based
Conditions: 50 μM; 7 days at 28° C.
assay_readout: % Inhibition of DON/AcDON at 50 μM (%)
Numbers only, in %.

Here are 2 compounds together with their reported answers.
CCC(C)n1cc(-c2ccnc(NC(=O)CC3CC3)c2)c(-c2ccc(Cl)s2)n1 (stereo not drawn) [Example 229]; 98
CCC(C)C(=O)Nc1cc(-c2cn(C(C)CC)nc2-c2ccc(Cl)s2)ccn1 (stereo not drawn) [Example 228]; 92

# query: % Inhibition of DON/AcDON at 50 μM of entry CCOCCn1cc(-c2ccncc2)c(-c2ccc(F)s2)n1 [Example 374] 99
